- TARGET: UniProt:P30542
- RUN_PARAMETERS: read-out: hA1 Ki; displacement of specific [3H]DPCPX binding, human CHO cells, ± SEM, n = 3
param class (str): category from Ki; see ranges b0: < 7 nM; b1: ≥ 7 nM and < 20 nM; b2: ≥ 20 nM

Example entries begin here.
• N#Cc1c(-c2ccccc2)nc(N)nc1-c1ccc(-c2ccccc2)cc1 [18ag] = b2
• N#Cc1c(-c2ccccc2)nc(N)nc1-c1ccc(Br)cc1 [18k] = b1
• N#Cc1c(-c2ccccc2)nc(N)nc1-c1ccc(F)cc1F [18o] = b0

// bin(item) where item = CNc1nc(-c2ccccc2)c(C#N)c(-c2cccc(F)c2)n1 [19j] b2

Next entry: N#Cc1c(-c2ccc(F)cc2)nc(N)nc1-c1ccco1 [18am] b1

Likewise for CCNc1nc(-c2ccccc2)c(C#N)c(-c2ccccc2)n1 [19b] ? b0

Moving on to the next compound: N#Cc1c(-c2ccccc2)nc(N)nc1-c1cc(Cl)cc(Cl)c1 [18s] b1

Next record, please: CNc1nc(-c2ccccc2)c(C#N)c(-c2ccsc2)n1 [19az] b2

Then what about the compound COc1cc(OC)cc(-c2nc(N)nc(-c3ccccc3)c2C#N)c1 [18t] ? b0

Consider next the compound COc1cc(-c2nc(Nc3ccccc3)nc(-c3ccccc3)c2C#N)cc(OC)c1OC [19as] in the same way. b2

Okay, and CCNc1nc(-c2ccccc2)c(C#N)c(-c2cccc(C#N)c2)n1 [19t] ? b0

Please give the result for N#Cc1c(-c2ccccc2)nc(N)nc1-c1ccsc1 [18aa] too. b0

Consider next the compound N#Cc1c(-c2ccccc2)nc(Nc2ccccc2)nc1-c1ccco1 [19au] in the same way. b2

Thanks! And N#Cc1c(-c2ccccc2)nc(N)nc1-c1cccc(F)c1 [18e] ? b1

###

- TARGET: human A1AR (Homo sapiens)
- Sequence (P30542 1-326): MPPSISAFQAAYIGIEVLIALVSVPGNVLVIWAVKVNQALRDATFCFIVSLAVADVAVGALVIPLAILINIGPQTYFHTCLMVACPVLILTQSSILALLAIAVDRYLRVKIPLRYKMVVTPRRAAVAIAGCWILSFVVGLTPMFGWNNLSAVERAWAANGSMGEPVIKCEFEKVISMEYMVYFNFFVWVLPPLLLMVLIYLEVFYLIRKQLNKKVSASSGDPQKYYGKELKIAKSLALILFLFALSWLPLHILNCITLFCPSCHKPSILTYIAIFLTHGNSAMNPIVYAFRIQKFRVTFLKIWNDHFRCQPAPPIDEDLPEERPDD
- RUN_PARAMETERS: read-out: hA1 Ki; displacement of specific [3H]DPCPX binding, human CHO cells, ± SEM, n = 3
// returns n unless Ki is strictly below 10 nM, in which case y

- CNc1nc(-c2ccccc2)c(C#N)c(-c2ccc(F)cc2F)n1 [19af]: n
- N#Cc1c(-c2ccccc2)nc(N)nc1-c1ccoc1 [18z]: n
- N#Cc1c(-c2ccccc2)nc(N)nc1-c1cccc(Cl)c1 [18f]: y
- CCNc1nc(-c2ccccc2)c(C#N)c(-c2ccc3c(c2)OCO3)n1 [19ap]: y
- COc1cccc(-c2nc(N)nc(-c3ccccc3)c2C#N)c1 [18g]: y

// switching to the query compound
Here's an entry: N#Cc1c(-c2ccccc2)nc(N)nc1-c1ccco1 [18x] . Is its Ki below 10 nM? y
